Assayed Target: T1, human CD73 (huCD73) protein, antigen of the Biacore assay (human, UniProt P21589 27-547, limits assumed)
T1 construct: also called human CD73 antigen
T1 sequence (looked up): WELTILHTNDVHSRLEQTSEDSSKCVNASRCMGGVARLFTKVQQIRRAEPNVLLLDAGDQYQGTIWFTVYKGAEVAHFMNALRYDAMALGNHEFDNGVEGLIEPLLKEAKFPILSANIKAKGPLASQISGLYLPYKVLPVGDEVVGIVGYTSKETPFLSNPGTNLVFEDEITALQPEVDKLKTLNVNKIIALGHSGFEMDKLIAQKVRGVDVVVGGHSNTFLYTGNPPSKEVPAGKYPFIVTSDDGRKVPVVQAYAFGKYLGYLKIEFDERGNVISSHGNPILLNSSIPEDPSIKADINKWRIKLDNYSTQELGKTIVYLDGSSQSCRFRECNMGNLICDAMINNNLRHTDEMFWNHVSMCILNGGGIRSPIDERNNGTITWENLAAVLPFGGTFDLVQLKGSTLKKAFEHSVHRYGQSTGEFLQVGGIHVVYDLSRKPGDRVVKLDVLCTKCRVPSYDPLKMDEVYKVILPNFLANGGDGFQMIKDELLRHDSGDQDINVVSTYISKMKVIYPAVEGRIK
Assay Explanation: SPR Biacore T200; antibody captured on Protein A chip, CD73 in flow; 1:1 Langmuir
# kon per entry

# annotated cases, reported kon shown
Hab127.13 (antibody, V domains shown, VL1 + VH3; recombined with human heavy and light constant regions) VH: EVQLVQSGAEVKKPGASVKVSCKASGYTFTAYFMNWVMQAPGQGLEWIGRIYHNNGDTFYSQKFKGRATLTVDKSTSTVYMELSSLRSEDTAVYYCATSYVGDWGQGTTVTVSS VL: DIQMTQSPSSLSASVGDRVTITCRASQDIGDSLNWYQQKPGKAPKRLIYATSSLDSGVPSRFSGSGSGTEFTLTISSLQPEDFATYYCLQYASFPWTFGGGTKVEIK ... 150000 M⁻¹ s⁻¹
Hab110.32 (antibody, V domains shown, VL3 + VH2; recombined with human heavy and light constant regions) VH: EVQLVQSGAEVKKPGASVKVSCKASGYTFTSYTMHWVRQAPGQRLEWMGYINPNSFYIEYNQKFKDRVTITADTSASTAYMELSSLRSEDTAVYYCARGDYDLFYDMDNWGQGTTVTVSS VL: DIQMTQSPSSLSASVGDRVTITCRASQDIGNSLNWLQQKPGGAIKRLIYATFRLDSGVPSRFSGSRSGTEYTLTISSLQPEDFADYYCQQYASFPWTFGGGTKVEIK ... 370000 M⁻¹ s⁻¹
Hab110.21 (antibody, human IgG1, kappa, V domains shown, also called humanized antibody of mab110) VH: EVQLVQSGAEVKKPGASVKVSCKASGYTFTSYTMHWVRQAPGQRLEWMGYINPNSFYIEYNQKFKDRVTITRDTSASTAYMELSSLRSEDTAVYYCARGDYDLFYDMDNWGQGTTVTVSS VL: DIQMTQSPSSLSASVGDRVTITCRASQDIGNSLNWLQQKPGKAIKRLIYATFRLDSGVPSRFSGSRSGTEYTLTISSLQPEDFATYYCQQYASFPWTFGGGTKVEIKR ... 650000 M⁻¹ s⁻¹
Hab108.62 (antibody, V domains shown, VL6 + VH2; full-length antibody) VH: EVTLKESGPVLVKPTETLTLTCTVSGFSLSSYGIQWIRQPPGKLLEWLAVIWSGGSADYNAAFISRLTISKDTSKSQVVLTMTNMDPVDTATYYCAGQYGSVWGQGTLVTVSS VL: DIQMTQSPSSLSASVGDRVTITCRASQDIGDRLNWLQQKPGGAIKRLIYATSSLDSGVPKRFSGSGSGTEYTLTISSLQPEDFATYYCLQYAGSWTFGGGTKVEIK ... 227000 M⁻¹ s⁻¹
Hab127.21 (antibody, V domains shown, VL2 + VH1; recombined with human heavy and light constant regions) VH: EVQLVQSGAEVKKPGASVKVSCKASGYTFTAYFMNWVRQAPGQGLEWMGRIYHNNGDTFYSQKFKGRVTMTVDKSTSTVYMELSSLRSEDTAVYYCATSYVGDWGQGTTVTVSS VL: DIQMTQSPSSLSASVGDRVTITCRASQDIGDSLNWLQQKPGKAPKRLIYATSSLDSGVPSRFSGSGSGTEYTLTISSLQPEDFATYYCLQYASFPWTFGGGTKVEIK ... 162000 M⁻¹ s⁻¹

Now take the following binder into account.
Ask: // lookup kon for Hab110.25 (antibody, V domains shown, VL2 + VH5; recombined with human heavy and light constant regions) VH: EVQLVQSGAEVKKPGASVKVSCKASGYTFTSYTMHWVKQAPGQGLEWIGYINPNSFYIEYNQKFKDKATLTADTSASTAYMELSSLRSEDTAVYYCARGDYDLFYDMDNWGQGTTVTVSS VL: DIQMTQSPSSLSASVGDRVTITCRASQDIGNSLNWLQQKPGKAIKRLIYATFRLDSGVPSRFSGSRSGTEYTLTISSLQPEDFATYYCQQYASFPWTFGGGTKVEIK
Result: 349000 M⁻¹ s⁻¹
